Measured values drawn from patent US20080318268A1 for this set.

# Tested on: Staphylococcus aureus (Staph) planktonic bacteria
# PROCEDURE TEXT: MBEC assay, planktonic Staph isolates (Example 5)
# Assay type: cell-based
# CONDITION DESCRIPTION: number of resistant isolates; 12 isolates from device associated infections; exposed 24 hours
In plain terms, low Staph resistance to individual antibiotics and antibiotic combinations, Planktonic, meaning strictly below 6, gives MET, and everything else gives NOT MET.

### Prompt Problem: For the compound CCC[C@@H]1C[C@@H](C(=O)N[C@@H]([C@H]2O[C@H](SC)[C@H](O)[C@@H](O)[C@H]2O)[C@H](C)Cl)N(C)C1 [CLIN, clindamycin] , is Staph resistance to individual antibiotics and antibiotic combinations, Planktonic under 6?
### Response NOT MET

### Prompt Can you handle Cc1nnc(SCC2=C(C(=O)O)N3C(=O)[C@@H](NC(=O)Cn4cnnn4)[C@H]3SC2)s1 [CFZ, cefazolin] next?
### Response MET

### Prompt Can you handle Cc1onc(-c2ccccc2Cl)c1C(=O)N[C@@H]1C(=O)N2[C@@H]1SC(C)(C)[C@@H]2C(=O)O [CLOX, cloxacillin] next?
### Response MET

### Prompt Can you handle O=C(O)c1cn(C2CC2)c2cc(N3CCNCC3)c(F)cc2c1=O [CIPRO, ciprofloxacin] next?
### Response NOT MET
